Test system: human hepatocytes
Assay: Assay A: Metabolic Stability in Human Hepatocytes
Format: in vitro ADME
Conditions: cryopreserved human hepatocytes, 10^6 viable cells/mL, 1 μM compound, 37° C.
Method: Assay A: Metabolic Stability in Human Hepatocytes Hepatocyte metabolic stability was determined in accordance with the method described by Jacobson et al., An optimized automated assay for determination of metabolic stability using hepatocytes: assay validation, variance component analysis, and in vivo relevance. Assay Drug Dev Technol 2007, 5 (3), 403-415. […] The quenching plate was then vortexed followed by centrifugation, and supernatants were analyzed by LC-MS/MS. […]
measurement name: Assay A: Human Heps Met Clint GMean CLint (μl/min/1E6)
Could you give me the number in μl/min/1E6? Just the number is fine.

C[C@@H]1CN(C(=O)c2cc(-c3cc(F)c(F)c(O)c3F)on2)C[C@H](C)O1 ... 14.6
C[C@@H]1CN(C(=O)c2noc(-c3cc(F)c(F)c(O)c3F)n2)C[C@@H](C)O1 ... 3.6
C[C@@H]1CN(C(=O)c2noc(-c3cc(F)c(F)c(O)c3F)n2)[C@H](C)CO1 ... 4.3
O=C(c1noc(-c2cc(F)c(F)c(O)c2F)n1)N1CC[C@H](c2ccc(Cl)cc2)C1 ... 12.9
O=C(c1noc(-c2cc(F)c(F)c(O)c2F)n1)N1CCOC2(CC2)C1 ... 4.6
N#Cc1ccc2c(c1)CCN(C(=O)c1noc(-c3cc(F)c(F)c(O)c3F)n1)C2 ... 12.6
CC1(C)CN(C(=O)c2noc(-c3cc(F)c(F)c(O)c3F)n2)CC(C)(C)O1 ... 4.1
Cn1nnc(-c2cnc(N3CCN(C(=O)c4noc(-c5cc(F)c(F)c(O)c5F)n4)CC3)c(Cl)c2)n1 ... 6.6

Problem: Give Assay A: Human Heps Met Clint GMean CLint (μl/min/1E6) for `O=C(c1noc(-c2cc(F)c(F)c(O)c2F)n1)N1CC(c2ccc(F)cc2)C1`
Solution: 14.4

Problem: Complete the entry with Assay A: Human Heps Met Clint GMean CLint (μl/min/1E6) for `N#Cc1cccc2c1CCN(C(=O)c1noc(-c3cc(F)c(F)c(O)c3F)n1)C2`
Solution: 12.1

Problem: Using the record for COc1ccccc1C1CCN(C(=O)c2noc(-c3cc(F)c(F)c(O)c3F)n2)C1 (centres unmarked) , state its measured Assay A: Human Heps Met Clint GMean CLint (μl/min/1E6).
Solution: 47.4

Problem: Quote Assay A: Human Heps Met Clint GMean CLint (μl/min/1E6) reported for `O=C(c1noc(-c2cc(F)c(F)c(O)c2F)n1)N1CCN(CCOc2ccc(Br)cn2)CC1` please.
Solution: 13.1

====

Quick reference: pIC50 of the listed items.
target: over expressed HSD17β13 in HEK293S cells (Homo sapiens (Human), UniProt Q7Z5P4); assay: In Vitro 17bHSD13 Cell Assay; format: cell-based; details: HEK293S cells over expressing HSD17β13; estradiol to estrone conversion, 18 h, LC-MS/MS; read-out: 17bHSD1713 Cell assay IC50
Schema: pIC50 number; meaning minus log10 of the concentration expressed in molar units.

Previously resolved entries follow.
O=C(c1noc(-c2cc(F)c(F)c(O)c2F)n1)N1CC2CC2(c2ccccc2)C1 (stereo not drawn) ... 6.77
O=C(c1nnc(-c2ccc(F)c(O)c2)o1)N1CC[C@H](c2ccccc2)C1 ... 6.12
Cc1cc2nc(CN(C)C(=O)c3noc(-c4cc(F)c(F)c(O)c4F)n3)[nH]c2cc1C ... 4.55
CN(C(=O)c1cc(-c2ccc(F)c(O)c2)no1)c1ccnn1C1CCCCC1 ... 5.58
CC(C)[C@H]1CN(C(=O)c2noc(-c3cc(F)c(F)c(O)c3F)n2)C[C@@H](C)O1 (racemic) ... 7.40
C[C@@H]1CN(C(=O)c2nc(-c3cc(F)c(F)c(O)c3F)no2)C[C@H](C)O1 ... 6.62
O=C(c1noc(-c2cc(F)c(F)c(O)c2F)n1)N1CCOC2(CCC2)C1 ... 6.32
COc1cccc(N2CCN(C(=O)c3noc(-c4cc(F)c(F)c(O)c4F)c3C#N)CC2)c1 ... 5.34
N#Cc1ccc(C2CN(C(=O)c3noc(-c4cc(F)c(F)c(O)c4F)n3)C2)cc1 ... 5.46
O=C(c1noc(-c2cc(F)c(F)c(O)c2F)n1)N1CCN(c2nc3ccccc3o2)CC1 ... 5.95

Problem: Provide the reported pIC50 (system: over expressed HSD17β13 in HEK293S cells (Homo sapiens (Human), UniProt Q7Z5P4)) for `C[C@@H]1CN(C(=O)c2noc(-c3cc(F)c(F)c(O)c3F)n2)C[C@@H](C)O1`
Solution: 6.72

Problem: Report pIC50 on over expressed HSD17β13 in HEK293S cells (Homo sapiens (Human), UniProt Q7Z5P4) for this entry: `N#Cc1c(C(=O)N2CC(C(F)(F)F)C2)noc1-c1cc(F)c(F)c(O)c1F`
Solution: 5.38

Problem: Fill: pIC50 (over expressed HSD17β13 in HEK293S cells (Homo sapiens (Human), UniProt Q7Z5P4)) for this molecule `N#Cc1c(C(=O)N2Cc3ccc(F)cc3C2)noc1-c1cc(F)c(F)c(O)c1F`
Solution: 6.10

====

system: human hepatocytes; experiment: Assay A: Metabolic Stability in Human Hepatocytes; format: in vitro ADME; conditions: cryopreserved human hepatocytes, 10^6 viable cells/mL, 1 μM compound, 37° C.
measurement name: Assay A: Human Heps Met Clint GMean CLint (μl/min/1E6)
Numbers only here, please. The scale is μl/min/1E6.

O=C(c1noc(-c2cc(C(F)(F)F)[nH]c(=O)c2)n1)N1CCC(c2ccccc2)C1 (centres unmarked) ... 262.2
O=C(c1noc(-c2cc(F)c(F)c(O)c2F)n1)N1CC[C@@H](Oc2ccccc2)C1 ... 26.7
O=C(c1noc(-c2cc(F)c(F)c(O)c2F)n1)N1CC2CCC(C1)C2(F)F ... 3.3

Problem: Annotate the molecule `N#Cc1c(C(=O)N2CCN(CCCOc3ccc(F)cc3)CC2)noc1-c1cc(F)c(F)c(O)c1F` with its measured Assay A: Human Heps Met Clint GMean CLint (μl/min/1E6).
Solution: 14.3

Problem: Find the measured Assay A: Human Heps Met Clint GMean CLint (μl/min/1E6) of `N#Cc1c(C(=O)N2CCC(O)(C(F)(F)F)CC2)noc1-c1cc(F)c(F)c(O)c1F` and report it.
Solution: 9.2

Problem: Given `O=C(c1noc(-c2cc(F)c(F)c(O)c2F)n1)N1CCO[C@@H]2CCC[C@H]21` , respond with its Assay A: Human Heps Met Clint GMean CLint (μl/min/1E6).
Solution: 6.4

====

target: recombinant 17bHSD13 (N2-K300) (Homo sapiens (Human), UniProt Q7Z5P4); test: In Vitro 17bHSD13 Enzyme Assay; settings: 80 nM 17bHSD13, 0.5 mM NAD, 20 μM Estradiol, 2.5 h; estradiol to estrone by LC-MS/MS
Sequence (Q7Z5P4 2-300): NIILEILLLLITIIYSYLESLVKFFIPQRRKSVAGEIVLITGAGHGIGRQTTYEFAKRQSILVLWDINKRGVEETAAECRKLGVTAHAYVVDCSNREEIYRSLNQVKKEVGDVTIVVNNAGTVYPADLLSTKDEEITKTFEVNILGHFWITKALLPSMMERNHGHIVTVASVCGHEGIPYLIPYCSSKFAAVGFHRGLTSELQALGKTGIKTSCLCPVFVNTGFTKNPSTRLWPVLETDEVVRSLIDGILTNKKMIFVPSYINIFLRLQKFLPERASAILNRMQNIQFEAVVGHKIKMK
measurement name: IC50 (nM)
# value in nM; strip the unit string

Recorded results for 3 compounds are shown here.
N#Cc1ccc2c(c1)CN(C(=O)c1noc(-c3cc(F)c(F)c(O)c3F)n1)CC2 ... 102
COc1ccc(OC2CCN(C(=O)c3noc(-c4cc(F)c(F)c(O)c4F)n3)CC2)nc1 ... 44
N#Cc1ccc(C2CN(C(=O)c3noc(-c4cc(F)c(F)c(O)c4F)n3)C2)cc1 ... 608

Problem: Please give measured IC50 of the following entry: `C[C@@H]1CN(C(=O)c2noc(-c3cc(F)c(F)c(O)c3F)n2)C[C@@H](C)O1`
Solution: 468

====

molecular target: CYP2C9 (Homo sapiens (Human), UniProt P11712)
Sequence (P11712 whole entry): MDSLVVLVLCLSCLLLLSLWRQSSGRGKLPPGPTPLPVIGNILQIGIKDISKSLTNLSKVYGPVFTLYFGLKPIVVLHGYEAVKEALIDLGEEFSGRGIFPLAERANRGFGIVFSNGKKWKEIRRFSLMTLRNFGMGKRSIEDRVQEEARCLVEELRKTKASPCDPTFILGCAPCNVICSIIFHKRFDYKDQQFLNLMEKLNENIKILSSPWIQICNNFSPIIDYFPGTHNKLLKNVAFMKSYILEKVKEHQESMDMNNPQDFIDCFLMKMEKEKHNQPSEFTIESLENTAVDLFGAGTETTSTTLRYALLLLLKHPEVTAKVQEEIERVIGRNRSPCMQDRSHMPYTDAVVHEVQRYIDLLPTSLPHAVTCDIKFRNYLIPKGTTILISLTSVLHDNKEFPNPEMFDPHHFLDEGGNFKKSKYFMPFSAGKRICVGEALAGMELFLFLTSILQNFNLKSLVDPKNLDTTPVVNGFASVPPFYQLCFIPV
measurement name: IC50

N#Cc1c(C(=O)N2Cc3ccc(F)cc3C2)noc1-c1cc(F)c(F)c(O)c1F ... 0.4 µM
C[C@@H]1CN(C(=O)c2noc(-c3cc(F)c(F)c(O)c3F)n2)[C@H](C)CO1 ... 17.2 µM
N#Cc1ccc(N2CCN(C(=O)c3noc(-c4cc(F)c(F)c(O)c4F)n3)CC2)cc1 ... 6.2 µM
C[C@@H]1C[C@H](C)CN(C(=O)c2nc(-c3cc(F)c(F)c(O)c3F)no2)C1 ... 4.9 µM
CC1(C)CN(C(=O)c2noc(-c3cc(F)c(F)c(O)c3F)n2)CC(C)(C)O1 ... 8.3 µM
CC(C)[C@H]1CN(C(=O)c2noc(-c3cc(F)c(F)c(O)c3F)n2)C[C@@H](C)O1 (racemic) ... 4.4 µM

Problem: Param request: IC50 | system CYP2C9 (Homo sapiens (Human), UniProt P11712) | item O=C(c1noc(-c2cc(F)c(F)c(O)c2F)n1)N1CCC(Oc2ccc(F)cc2)C1 (centres unmarked)
Solution: 2 µM

Problem: Fill in IC50 for `N#Cc1ccc2c(c1)CN(C(=O)c1noc(-c3cc(F)c(F)c(O)c3F)c1C#N)CC2` tested with CYP2C9 (Homo sapiens (Human), UniProt P11712).
Solution: 0.2 µM

Problem: State measured IC50 of the molecule CC1CN(C(=O)c2noc(-c3cc(F)c(F)c(O)c3F)n2)CC2(CCC2)O1 (racemic) with CYP2C9 (Homo sapiens (Human), UniProt P11712).
Solution: 9.3 µM

Problem: Fill: IC50 (CYP2C9 (Homo sapiens (Human), UniProt P11712)) for this molecule `C[C@@H]1CN(C(=O)c2cnc(-c3cc(F)c(F)c(O)c3F)s2)C[C@H](C)O1`
Solution: 12.8 µM

Problem: Give IC50 for this entry on CYP2C9 (Homo sapiens (Human), UniProt P11712): `C[C@@H]1C[C@H](C)CN(C(=O)c2noc(-c3cc(F)c(F)c(O)c3F)n2)C1`
Solution: 7.8 µM
